Molecular target: UniProt:Q9NZQ7
Sequence (Q9NZQ7 other isoform, or with tags, fused parts or gaps): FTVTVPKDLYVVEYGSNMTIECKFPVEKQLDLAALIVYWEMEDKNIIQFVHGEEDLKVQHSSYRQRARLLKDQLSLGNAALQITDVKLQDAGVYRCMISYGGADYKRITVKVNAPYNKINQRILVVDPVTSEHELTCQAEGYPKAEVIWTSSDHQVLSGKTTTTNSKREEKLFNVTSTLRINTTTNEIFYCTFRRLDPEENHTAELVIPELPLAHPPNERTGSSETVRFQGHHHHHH
Test: PD-1/PD-L1 Homogenous Time-Resolved Fluorescence (HTRF) binding assay (PD-1-Ig/PD-L1-His)
Settings: PD-1-Ig (20 nM)/PD-L1-His (10 nM); range classes
pIC50: −log10 of the molar value. Where a SMILES comes first, the peptide text is derived from it. Bridges are numbered along the chain shown (N, C = ends). [ ]: non-standard residue; d: D form. Bta = N[C@@H](Cc1csc2ccccc12)C(=O)O; Hyp = O=C(O)[C@@H]1C[C@@H](O)CN1; NMeNle = CCCC[C@H](NC)C(=O)O; NMeA = CN[C@@H](C)C(=O)O; Sar = CNCC(=O)O
MEASUREMENT_NAME: pIC50

Below are worked cases with known answers.
CCCC[C@H]1C(=O)N(C)[C@@H](CCCC)C(=O)N[C@H]2CCCCNC(=O)CC[C@H](NC(=O)[C@H](Cc3c[nH]c4ccccc34)NC(=O)CN(C)C(=O)[C@H](CC(C)C)NC(=O)[C@H](Cc3c[nH]cn3)NC(=O)[C@@H]3CCCN3C(=O)[C@H](CC(N)=O)NC(=O)[C@H](C)N(C)C(=O)[C@H](Cc3ccccc3)NC(=O)CSC[C@@H](C(=O)NCC(N)=O)NC2=O)C(=O)N[C@@H](Cc2c[nH]c3ccccc23)C(=O)N1C [Example 5002] ({CH2CO}-F[NMeA]NPHL[Sar]WEW[NMeNle][NMeNle]KCG-NH2; lactam 9-13; thioether N-14) : 7.00 to 8.00
CCCC[C@H]1C(=O)N(C)[C@@H](CCCC)C(=O)N[C@H]2CCC(=O)NCCCC[C@H](NC(=O)[C@H](Cc3c[nH]c4ccccc34)NC(=O)[C@@H]3CCCN3C(=O)[C@H](CC(C)C)NC(=O)[C@H](Cc3c[nH]cn3)NC(=O)[C@@H]3CCCN3C(=O)[C@H](CC(N)=O)NC(=O)[C@H](C)N(C)C(=O)[C@H](Cc3ccc(O)cc3)NC(=O)CSC[C@@H](C(=O)NCC(N)=O)NC2=O)C(=O)N[C@@H](Cc2csc3ccccc23)C(=O)N1C [Example 5004] ({CH2CO}-Y[NMeA]NPHLPWK[Bta][NMeNle][NMeNle]ECG-NH2; lactam 9-13; thioether N-14) : 8.00 to 8.52

Problem: Look up pIC50: CCCC[C@H]1C(=O)N(C)[C@@H](CCCC)C(=O)N[C@@H](C)C(=O)N[C@H](C(=O)NCC(N)=O)CSCC(=O)N[C@@H](Cc2ccc(O)cc2)C(=O)N(C)[C@@H](C)C(=O)N[C@H]2CC(=O)NCCCC[C@H](NC(=O)[C@H](Cc3cnc[nH]3)NC(=O)[C@@H]3CCCN3C2=O)C(=O)N2C[C@H](O)C[C@H]2C(=O)N[C@@H](Cc2c[nH]c3ccccc23)C(=O)N[C@@H](CO)C(=O)N[C@@H](Cc2c[nH]c3ccccc23)C(=O)N1C [Example 1507] ({CH2CO}-Y[NMeA]DPHK[Hyp]WSW[NMeNle][NMeNle]ACG-NH2; lactam 3-6; thioether N-14)
Result: 7.00 to 8.00

Problem: Look up pIC50: CCCC[C@H]1C(=O)N(C)[C@@H](CCCC)C(=O)N[C@@H](CC(C)C)C(=O)N[C@H](C(=O)NCC(N)=O)CSCC(=O)N[C@@H](Cc2ccc(O)cc2)C(=O)N(C)[C@@H](C)C(=O)N[C@H]2CCC(=O)NCCCC[C@H](NC(=O)[C@@H]3CCCN3C2=O)C(=O)N[C@@H](CC(C)C)C(=O)N2CCC[C@H]2C(=O)N[C@@H](Cc2c[nH]c3ccccc23)C(=O)N[C@@H](CO)C(=O)N[C@@H](Cc2c[nH]c3ccccc23)C(=O)N1C [Example 10501]
Result: 6.00 to 7.00
